Target: HLA-A*1101 (human)
Conditions: scale: ratio
measurement-name: binding affinity ratio (relative to standard peptide)
Give the figure only, with no unit attached.

Sample answers from the record:
binding affinity ratio (relative to standard peptide) for IFNKESLAEK (modifications not checked) [Pf EXP peptide … (position 15)] ?
0.0003

binding affinity ratio (relative to standard peptide) for KGTGSGVSSK (modifications not checked) [Pf EXP peptide … (position 27)] ?
0.0009

binding affinity ratio (relative to standard peptide) for GVSSKKKNKK (modifications not checked) ?
0.0002

binding affinity ratio (relative to standard peptide) for GVSSKKKNK (modifications not checked) ?
0.0002

binding affinity ratio (relative to standard peptide) for HDLISDMIK (modifications not checked) ?
0.0002

Now, please, on to the next binder.
binding affinity ratio (relative to standard peptide) for HDLISDMIKK (modifications not checked) ?
0.0002
